Recorded growth for the following compounds
System: HL-60(TB) leukemia
assayProcedure: NCI-60 one-dose screen, 48 h (100 = growth as untreated, 0 = no growth, -100 = all killed)
conditionSet: 10 µM unless noted
The panel holds about 83,000 compounds, 20% with a hit somewhere; the sample as a whole holds those more often.
propertyMeasured: growth (%)

{"compound": "Cc1nn(-c2ccccc2)c(N)c1N=C1NC(=O)/C(=C/c2ccc(Br)cc2)S1", "measuredTarget": "HL-60(TB) leukemia", "unitAnnotation": "%", "observed": 77.9}
{"compound": "CS(=O)(=O)c1ccc(C(=O)Nc2ccc(Cl)c(-c3ccccn3)c2)c(Cl)c1", "measuredTarget": "HL-60(TB) leukemia", "unitAnnotation": "%", "observed": 14.2}
{"compound": "Cc1ccc(/C=C/C(=O)Nc2ncc(Cc3ccc(F)cc3)s2)o1", "measuredTarget": "HL-60(TB) leukemia", "unitAnnotation": "%", "observed": 2.75}
{"compound": "Cc1cccc(N2CCN(CC(O)COc3ccc(Cl)cc3)CC2)c1 (stereo unspecified)", "measuredTarget": "HL-60(TB) leukemia", "unitAnnotation": "%", "observed": 123}
{"compound": "CCOc1ccc(Br)cc1/C=C(\\C#N)c1ccc([N+](=O)[O-])cc1", "measuredTarget": "HL-60(TB) leukemia", "unitAnnotation": "%", "observed": 91.6}
{"compound": "CCOC(=O)c1cnn(CC(O)c2ccc(F)cc2)c1NC(=O)Nc1ccccc1F (stereo unspecified)", "measuredTarget": "HL-60(TB) leukemia", "unitAnnotation": "%", "observed": 102}
{"compound": "Nc1n[nH]c2cccc(C#Cc3cccc(C(=O)Nc4cc(CN5CCOCC5)cc(C(F)(F)F)c4)c3)c12", "measuredTarget": "HL-60(TB) leukemia", "unitAnnotation": "%", "observed": 16.6}
{"compound": "CC(=O)Nc1ccc2c(c1)Cc1c(F)cccc1-2", "measuredTarget": "HL-60(TB) leukemia", "unitAnnotation": "%", "observed": 97.7}
{"compound": "O=C(Nn1cnc2ccccc21)N1CCCC1", "measuredTarget": "HL-60(TB) leukemia", "unitAnnotation": "%", "observed": 87.1}
{"compound": "Cc1cc(-c2ccc(N(C)C)cc2)c2sc(=O)[nH]c2n1", "measuredTarget": "HL-60(TB) leukemia", "unitAnnotation": "%", "observed": 14.3}
{"compound": "Cn1cc(-c2ccc(-c3cn(C)c4ccc(Cl)cc34)[nH]2)c2cc(Cl)ccc21", "measuredTarget": "HL-60(TB) leukemia", "unitAnnotation": "%", "observed": -37.8}
{"compound": "Cc1ccccc1NC(=O)c1cc2ccccc2cc1O", "measuredTarget": "HL-60(TB) leukemia", "unitAnnotation": "%", "observed": 0.175}
{"compound": "O=C(Nc1ccc(Cl)cc1)C1=NCCCCN1", "measuredTarget": "HL-60(TB) leukemia", "unitAnnotation": "%", "observed": 96.6}
{"compound": "COc1ccc(C2N(c3cc(OC)c(OC)c(OC)c3)C(=O)C2(F)F)cc1F (stereo unspecified)", "measuredTarget": "HL-60(TB) leukemia", "unitAnnotation": "%", "observed": 0.936}
{"compound": "COC(=O)C(O)c1ccccc1 (stereo unspecified)", "measuredTarget": "HL-60(TB) leukemia", "unitAnnotation": "%", "observed": 109}
{"compound": "O=C(Nc1ccccc1)c1cc2ccccc2s1", "measuredTarget": "HL-60(TB) leukemia", "unitAnnotation": "%", "observed": 61.6}
{"compound": "Cc1ccc2c(n1)C(=O)C(Oc1ccc(F)cc1)=CC2=O", "measuredTarget": "HL-60(TB) leukemia", "unitAnnotation": "%", "observed": 54}
{"compound": "CC[C@]1(O)C[C@@H]2CN(CCc3c([nH]c4ccccc34)[C@@](C(=O)OC)(c3cc4c(cc3OC)N(C)[C@H]3[C@@](O)(C(=O)OC)[C@H](OC(=O)CCCBr)[C@]5(CC)C=CCN6CC[C@]43[C@@H]65)C2)C1", "measuredTarget": "HL-60(TB) leukemia", "unitAnnotation": "%", "observed": -21.2}
{"compound": "CCN(CC)c1ccc(C(=O)c2ccc(N(CC)CC)cc2)cc1", "measuredTarget": "HL-60(TB) leukemia", "unitAnnotation": "%", "observed": 9.59}
{"compound": "COc1ccc(-c2nnc(COc3ccc(Cl)cc3Cl)o2)cc1OC", "measuredTarget": "HL-60(TB) leukemia", "unitAnnotation": "%", "observed": 89.3}
{"compound": "C/C(=N\\O)c1ccc(NC(=O)CSc2nnc(-c3cc(-c4ccc(S(N)(=O)=O)cc4)nc4ccccc34)n2-c2ccccc2)cc1", "measuredTarget": "HL-60(TB) leukemia", "unitAnnotation": "%", "observed": 24.1}
{"compound": "O=C(CN1CCN(c2ccc(Cl)cc2)CC1)N1CCN(c2nnc(-c3ccc(Cl)cc3)c(-c3ccc(Cl)cc3)n2)CC1", "measuredTarget": "HL-60(TB) leukemia", "unitAnnotation": "%", "observed": 41.4}
{"compound": "NC(=O)c1noc(C(=O)c2ccccc2)c1N", "measuredTarget": "HL-60(TB) leukemia", "unitAnnotation": "%", "observed": 93.7}
{"compound": "CC(C)(C)n1cc(-c2ccnc(NCCCNS(=O)(=O)c3ccc(Br)cc3)c2)c(-c2cccc(O)c2)n1", "measuredTarget": "HL-60(TB) leukemia", "unitAnnotation": "%", "observed": 3.72}
{"compound": "O=C(/C=C/c1ccc(F)cc1)Nc1ncc(Cc2ccc(F)cc2)s1", "measuredTarget": "HL-60(TB) leukemia", "unitAnnotation": "%", "observed": -26.6}
{"compound": "Fc1ccc(NCc2cn(-c3ccccc3)nc2-c2ccc(OCc3ccccc3)cc2)cc1Cl", "measuredTarget": "HL-60(TB) leukemia", "unitAnnotation": "%", "observed": 79.5}
{"compound": "Nc1ncnc2c1ncn2C1OC(COC(c2ccccc2)(c2ccccc2)c2ccccc2)C(O)C1O (stereo unspecified)", "measuredTarget": "HL-60(TB) leukemia", "unitAnnotation": "%", "observed": 8.77}
{"compound": "COC(=O)CC[C@@H]1O[C@@H](c2ccc(F)cc2)[C@@H](O)[C@H]1O", "measuredTarget": "HL-60(TB) leukemia", "unitAnnotation": "%", "observed": 113}
{"compound": "CN1CSC(=S)N(Cc2ccccc2)C1", "measuredTarget": "HL-60(TB) leukemia", "unitAnnotation": "%", "observed": 79.8}
{"compound": "CCOC(=O)c1cc(C(=O)c2cc(OC)c(OC)c(OC)c2)n2c1ccc1ccccc12", "measuredTarget": "HL-60(TB) leukemia", "unitAnnotation": "%", "observed": -12.9}
{"compound": "O=C1/C(=C\\c2ccc(Cl)cc2)CN(C(=S)Nc2ccccc2)C/C1=C\\c1ccc(Cl)cc1", "measuredTarget": "HL-60(TB) leukemia", "unitAnnotation": "%", "observed": -15.4}
{"compound": "N#C/C(=C\\c1c(-c2ccccc2)[nH]c2ccccc12)C(N)=O", "measuredTarget": "HL-60(TB) leukemia", "unitAnnotation": "%", "observed": 39.6}
{"compound": "O=C1CSC(=S)N1/N=C/c1ccc(Cl)s1", "measuredTarget": "HL-60(TB) leukemia", "unitAnnotation": "%", "observed": 91}
{"compound": "COc1c(B(O)O)cc(C)cc1-c1nc2ccc3[nH]ncc3c2c2c1CCCC2", "measuredTarget": "HL-60(TB) leukemia", "unitAnnotation": "%", "observed": 13.3}
{"compound": "O=C(O)COc1c(Cl)cc([N+](=O)[O-])cc1Cl", "measuredTarget": "HL-60(TB) leukemia", "unitAnnotation": "%", "observed": 87.1}
{"compound": "NS(=O)(=O)c1ccc(CCN2C(=O)c3cc(Cl)c(Cl)cc3C2=O)cc1", "measuredTarget": "HL-60(TB) leukemia", "unitAnnotation": "%", "observed": 86.5}
{"compound": "COc1ccc(CC2c3cc(OC)c(OC)cc3CC[N+]2(C)CCC(=O)OCCCCCOC(=O)CC[N+]2(C)CCc3cc(OC)c(OC)cc3C2Cc2ccc(OC)c(OC)c2)cc1OC (stereo unspecified)", "measuredTarget": "HL-60(TB) leukemia", "unitAnnotation": "%", "observed": 82.9}
{"compound": "Clc1ccc(Nc2nnc(CNc3ccccc3)c3ccccc23)cc1", "measuredTarget": "HL-60(TB) leukemia", "unitAnnotation": "%", "observed": -13.4}
{"compound": "CCN(CC)CCn1c2ccc(OC)cc2c2sc3cc(O)ccc3c(=O)c21", "measuredTarget": "HL-60(TB) leukemia", "unitAnnotation": "%", "observed": 31}
{"compound": "COC1OCC(O)C(O)C1O (stereo unspecified)", "measuredTarget": "HL-60(TB) leukemia", "unitAnnotation": "%", "observed": 102}
{"compound": "COc1cc2c(Nc3ccc(NC(=O)Nc4ccc(Cl)c(C(F)(F)F)c4)c(Cl)c3)ncnc2cc1OCCCN1CCN(C)CC1", "measuredTarget": "HL-60(TB) leukemia", "unitAnnotation": "%", "observed": -56.4}
